molecular target: RSV fusion glycoprotein (RSV-F) (respiratory syncytial virus); assay: SPR; F protein loaded on streptavidin sensors, mAb in solution
Listing: Kd of selected binders
Provide the reading as a plain figure in pM.

>>> assay_result("MPK9 (antibody, V domains shown, VH and VL only) VH: EVQLVESGGGLVKPGGSLRLSCAASGFTISGYGMSWFRQAPGKGLEWVSSISASSSYIYYADSTKGRFTISRDNGKQSLYLQMNSLRAEDTAVYYCATSPIEPPYFDLWGRGTLVTVSS VL: QSVLTQPPSVSGAPGQRVTISCTGSSSNIGAGYDVHWYQQLPGKAPKLLIYGNNNRPSGVPDRFSGSNSGASASLAITGLQAEDEADYFCQSYDRRLSGPVFGRGTKLTVL")
40
>>> assay_result("MPK150-v2 (antibody, V domains shown, VH and VL only) VH: EVQLVESGGGLVKPGGSLRLSCEASGISLSGYYMIWIRQAPGKGLEWISSISGSSTYIDYADSVRGRFTISRHNGQNTIYLQMNSLRVEDTAVYFCATEQTPSPGPFELWGRGILVTVSS VL: QSVLTQPPSVSGAPGQRVTIFCTGTSSNIGTGYDVHWYQQFPGTSPKLLIFRNSNRPSGVPDRFSGSKSGSSASLAIAGLQAEDEADYYCQSYDRGVNGWVFGGGTKLTVL")
1

Given the binder MPK67 (antibody, V domains shown, VH and VL only) VH: EVQLVESGGGLVKPGGSLRLSCAASGFTISGYYMIWIRQAPGKGLEWISYISGSSSYTNYGASVKGRFTISRDNGQNTVHLQMTNLRADDTALYYCATEQTPSPGPFDLWGQGTLVTVSS VL: QSVLTQPPSVSGAPGQRVTISCSGTSSNIGAGYDVHWYQQFPGTSPKLLISRNFNRPSGVPARFSGSKSGSSASLAIAGLQPEDEADYYCQSYDRSLGGWVFGGGTKVTVL , what is its reported Kd? 5.9
